assay.text: protein stability index of a GFP-peptide fusion (GPS, HEK-293T) (PSI 1-6); higher = more stable;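 also: 24-mer peptide tiles fused after GFP, lentivirally expressed, FACS-sorted into six equal bins by GFP/DsRed ratio, decoded by Illumina sequencing, PSI is the read-weighted mean bin number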
applied.conditions: treatment: MLN4924 1 uM, 8 h; c terminus: a fixed tail appended
attribute.measured: protein stability index
Answer using only a numeral; do not append any unit.

sequence="TSCSLELIGDLIGHSSSVEMFLYF [WDR41]" attribute_measured="protein stability index" recorded_value=2.4
sequence="DITEGDRKPDYTAYVAMIPQCIKE [ATF4]" attribute_measured="protein stability index" recorded_value=3.38
sequence="MAESWLRLSGAGPAEEAGPEGGLE [FOXJ1]" attribute_measured="protein stability index" recorded_value=5.01
sequence="VLSCEAATQTERRLDLAAVTLRRG [FAM189A2]" attribute_measured="protein stability index" recorded_value=4.28
sequence="PDTQALCHHLPVIRQLATSGRFIV [SMG5]" attribute_measured="protein stability index" recorded_value=2.23

According to the records, this sequence IVTVHYGCASFIYLRPQSNYSSSQ [OR10K2] displays protein stability index of 2.95

According to the records, this sequence FEFSVDSFQIVLDPMLDFYSDKNA [TENT5D] displays protein stability index of 2.52

According to the records, this sequence NGKTIEMDTQFTIRARELQNIYKC [IQUB] displays protein stability index of 2.8

According to the records, this sequence VLVLIFNAAKTCPTMPALFSDHTF [INTS4] displays protein stability index of 3.16

According to the records, this sequence NLAKEQLSRENIQSSLLETLYRNR [PPEF2] displays protein stability index of 3.22

According to the records, this sequence RKFSRLSCLRRRRHPPKVGDDSDL [SMG5] displays protein stability index of 3.96

###

Entries and their protein stability index values follow.
assay.text: protein stability index of a GFP-peptide fusion (GPS, HEK-293T) (PSI 1-6); higher = more stable
applied.conditions: treatment: DMSO; c terminus: a fixed tail appended
Answer using only a numeral; do not append any unit.

sequence="KIMIIICCVILGIVIASTVGGIFA [STX1A]" recorded_value=2.04
sequence="LRPTSVDPALRRRRRGPRNKKRGW [NOP53]" recorded_value=4.64
sequence="VVLKLFLSFSGSDVQNKLKESAQC [SNX8]" recorded_value=2.8

According to the records, this sequence KSLEIEEKINKIKWLPQQNAAHSL [PPP2R2C] displays protein stability index of 3.66

According to the records, this sequence MAESWLRLSGAGPAEEAGPEGGLE [FOXJ1] displays protein stability index of 4.67

###

Entries and their protein stability index values follow.
assay.text: protein stability index of a GFP-peptide fusion (GPS, HEK-293T) (PSI 1-6); higher = more stable
applied.conditions: treatment: DMSO; c terminus: a fixed tail appended

A selection of reference data follows.
sequence="SDTYRCEERSPSFGEDYYGPSRSR [CLK3]" attribute_measured="protein stability index" recorded_value=4.47
sequence="DVKAMGPLVLTEVLFNEKIREQIK [EIF5]" attribute_measured="protein stability index" recorded_value=2.39
sequence="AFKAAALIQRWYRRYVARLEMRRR [PPEF2]" attribute_measured="protein stability index" recorded_value=3.55
sequence="DPNINPTIGASFMTKTVQYQNELH [RAB22A]" attribute_measured="protein stability index" recorded_value=4.29
sequence="ALQPSPSIRLPLDAPLPGSKAKPK [TBC1D10A]" attribute_measured="protein stability index" recorded_value=4.19

According to the records, this sequence LAFFPFLHRLFREKSLDQLKSISA [PHTF1] displays protein stability index of 2.46

According to the records, this sequence QLPIDRGGGEGKAMYIDTEGTFRP [RAD51] displays protein stability index of 4.16

According to the records, this sequence ERSQVRGSAPPRATPGGGTGEAAR [PCDHGC5] displays protein stability index of 5.13

According to the records, this sequence QILPVLDFCKVFLISGVTLDNCVE [KLHL13] displays protein stability index of 3.21

According to the records, this sequence ALEEPEKMGLQERSETFLEVWGNA [DNAAF3] displays protein stability index of 4.35

According to the records, this sequence LRDPATITTLRVPVLRPMDLMVEA [PPP2R2B] displays protein stability index of 2.85

According to the records, this sequence EEHWVGLKKEPGHPWKWSNGKEFN [CD69] displays protein stability index of 3.19

According to the records, this sequence AQQLLREFEEATGEAGWGAGEGRL [FOXJ1] displays protein stability index of 4.74

According to the records, this sequence RAKVKTDDIARIYQPKRYALSPKT [FAM98B] displays protein stability index of 3.4

According to the records, this sequence SISDLSEHVFDLILELYNIDSHLL [PDS5B] displays protein stability index of 2.49
